Numbers sourced from patent US7462600B2.

- Test system: Haemophilus influenzae 1218
- Assay name: MIC, microtiter broth dilution (NCCLS M100-S14), H. influenzae 1218 (susceptible)
- Assay type: cell-based
- Conditions: Haemophilus influenzae 1218
Record form. Attribute: MIC H. influenzae 1218. Fill in for each entry.
Numbers only, in µg/mL.

CCC1OC(=O)C(C)C(=O)C(C)C(OC2OC(C)CC(N(C)C)C2O)C(C)(OC)CC(C)C(=O)C(C)C2N(C3CN(Cc4ccnc5c(OC)cccc45)C3)C(=O)OC12C (centres unmarked); 2
CCC1OC(=O)C(C)C(=O)C(C)C(OC2OC(C)CC(N(C)C)C2O)C(C)(OC)CC(C)C(=O)C(C)C2N(C3CN(C(c4ccccc4)c4ccncc4)C3)C(=O)OC12C (single isomer, unassigned) [Example 1.68, phenyl-(pyridin-4-yl)methyl (*)]; 4

Dear colleague, could you please provide MIC H. influenzae 1218 for the compounds listed below?
1. CCC1OC(=O)C(C)(F)C(=O)C(C)C(OC2OC(C)CC(N(C)C)C2O)C(C)(OC)CC(C)C(=O)C(C)C2N(C3CN(Cc4ccnc5ncccc45)C3)C(=O)OC12C (centres unmarked)
2. CCC1OC(=O)C(C)C(=O)C(C)C(OC2OC(C)CC(N(C)C)C2O)C(C)(OC)CC(C)C(=O)C(C)C2N(C3CN(S(=O)(=O)c4ccc(OC(F)F)c5ncccc45)C3)C(=O)OC12C (centres unmarked)
3. CCC1OC(=O)C(C)C(=O)C(C)C(OC2OC(C)CC(N(C)C)C2O)C(C)(OC)CC(C)C(=O)C(C)C2N(C3CN(S(=O)(=O)c4ccc(NC(C)=O)cc4)C3)C(=O)OC12C (centres unmarked)

Out:
1: 0.25; 2: 1; 3: 1

====

Record form. Attribute: MIC S. pneumo. 1175. Fill in for each entry.
- Tested on: Streptococcus pneumoniae 1175
- Format: cell-based
- Conditions: Streptococcus pneumoniae 1175; microtiter broth dilution

Study these solved cases before continuing.
CCC1OC(=O)C(C)C(=O)C(C)C(OC2OC(C)CC(N(C)C)C2O)C(C)(OC)CC(C)C(=O)C(C)C2N(C3CN(S(=O)(=O)c4ccc(OC)nc4)C3)C(=O)OC12C (centres unmarked); <0.06 µg/mL
CCC1OC(=O)C(C)C(=O)C(C)C(OC2OC(C)CC(N(C)C)C2O)C(C)(OC)CC(C)C(=O)C(C)C2N(CC3CN(Cc4cnn(-c5cccc(F)c5)c4)C3)C(=O)OC12C (centres unmarked); <0.06 µg/mL

Dear colleague, could you please provide MIC S. pneumo. 1175 for the compounds listed below?
1. CCC1OC(=O)C(C)C(=O)C(C)C(OC2OC(C)CC(N(C)C)C2O)C(C)(OC)CC(C)C(=O)C(C)C2N(CC3CN(C(=O)c4cncc5ccccc45)C3)C(=O)OC12C.O=CO (centres unmarked)
2. CCC1OC(=O)C(C)C(=O)C(C)C(OC2OC(C)CC(N(C)C)C2O)C(C)(OC)CC(C)C(=O)C(C)C2N(C3CN(C(=O)c4ccnc(-c5noc(C)n5)c4)C3)C(=O)OC12C (centres unmarked)
3. CCC1OC(=O)C(C)C(=O)C(C)C(OC2OC(C)CC(N(C)C)C2O)C(C)(OC)CC(C)C(=O)C(C)C2N(CC3CN(S(=O)(=O)c4cccc(C#N)c4)C3)C(=O)OC12C (centres unmarked)

Out:
1: 0.12 µg/mL; 2: 0.5 µg/mL; 3: 0.19 µg/mL
